MEASUREMENT_TARGET: Melanocortin receptor 5 (Homo sapiens)
Sequence (P33032 whole entry): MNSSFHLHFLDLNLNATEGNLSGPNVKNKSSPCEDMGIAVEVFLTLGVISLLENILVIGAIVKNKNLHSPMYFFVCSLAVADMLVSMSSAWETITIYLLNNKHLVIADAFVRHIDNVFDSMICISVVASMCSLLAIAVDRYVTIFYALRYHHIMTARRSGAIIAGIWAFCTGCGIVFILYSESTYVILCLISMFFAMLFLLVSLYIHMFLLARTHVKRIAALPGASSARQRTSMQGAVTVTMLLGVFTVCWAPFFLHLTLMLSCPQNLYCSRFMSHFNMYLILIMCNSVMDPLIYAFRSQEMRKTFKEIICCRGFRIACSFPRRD
TEST_SUMMARY: Intracellular cAMP accumulation in human Melanocortin 5 receptor functional assay.
Bridge positions count the residues as written; N and C are the ends. Square brackets hold non-standard residues; d marks the D form. Peptide text beside a SMILES is read from it. Pen = CC(C)(S)[C@H](N)C(=O)O; Nle = CCCC[C@H](N)C(=O)O
EC50 under 70 nM gets Satisfied, anything at or over 70 nM gets Not satisfied.

Worked examples follow.
{"columns": ["COMPOUND", "ANSWER_LABEL"],
 "data": [
  ["CCCC[C@H](NC(=O)[C@@H](NC(=O)[C@@H](N)Cc1ccc(O)cc1)C(C)C)C(=O)NCC(=O)NC(C)(C)C(=O)N[C@@H](Cc1ccccc1)C(=O)N[C@@H](CCCN=C(N)N)C(=O)N[C@H](Cc1ccc2ccccc2c1)C(=O)N[C@@H](CC(=O)O)C(=O)N[C@@H](CCCN=C(N)N)C(=O)N[C@@H](Cc1ccccc1)C(=O)NCC(N)=O", "Satisfied"],
  ["CCCC[C@H](NC(=O)[C@@H](NC(=O)[C@@H](N)Cc1ccc(O)cc1)C(C)C)C(=O)N[C@H]1CSSC[C@H](C(=O)N[C@@H](CCCN=C(N)N)C(=O)N[C@@H](Cc2ccccc2)C(=O)NCC(N)=O)NC(=O)[C@H](Cc2c[nH]c3ccccc23)NC(=O)[C@H](CCCN=C(N)N)NC(=O)[C@H](Cc2ccccc2)NC(=O)[C@H](Cc2c[nH]cn2)NC1=O", "Not satisfied"],
  ["CCCC[C@H](NC(=O)[C@@H](NC(=O)[C@@H](N)Cc1ccc(O)cc1)C(C)C)C(=O)NCC(=O)N[C@@](C)(Cc1ccccc1)C(=O)N[C@@H](Cc1ccccc1)C(=O)N[C@@H](CCCN=C(N)N)C(=O)N[C@H](Cc1ccc2ccccc2c1)C(=O)N[C@@H](CC(=O)O)C(=O)N[C@@H](CCCN=C(N)N)C(=O)N[C@@H](Cc1ccccc1)C(=O)NCC(N)=O", "Not satisfied"],
  ["CCCC[C@H](NC(=O)[C@@H](NC(=O)[C@@H](N)Cc1ccc(O)cc1)C(C)C)C(=O)NCC(=O)N[C@@H](Cc1c[nH]cn1)C(=O)N[C@@H](Cc1ccccc1)C(=O)N[C@@H](CCCN=C(N)N)C(=O)N[C@H](Cc1ccc2ccccc2c1)C(=O)N[C@@H](CC(=O)O)C(=O)N[C@@H](CCCN=C(N)N)C(=O)N[C@@H](Cc1ccccc1)C(=O)NCC(N)=O", "Satisfied"],
  ["CC(C)[C@H](NC(=O)[C@@H](N)Cc1ccc(O)cc1)C(=O)N[C@H]1CSSC[C@H](C(=O)N[C@@H](CCCN=C(N)N)C(=O)N[C@@H](Cc2ccccc2)C(=O)NCC(N)=O)NC(=O)[C@H](Cc2c[nH]c3ccccc23)NC(=O)[C@H](CCCN=C(N)N)NC(=O)[C@H](Cc2ccccc2)NC(=O)[C@H](Cc2c[nH]cn2)NC(=O)CNC1=O", "Not satisfied"],
  ["CCCC[C@H](NC(=O)[C@@H](NC(=O)[C@@H](N)Cc1ccc(O)cc1)C(C)C)C(=O)N[C@H]1CC(=O)NCCCC[C@@H](C(=O)N[C@@H](CCCN=C(N)N)C(=O)N[C@@H](Cc2ccccc2)C(=O)NCC(N)=O)NC(=O)[C@H](Cc2c[nH]c3ccccc23)NC(=O)[C@H](CCCN=C(N)N)NC(=O)[C@H](Cc2ccccc2)NC(=O)[C@H](Cc2c[nH]cn2)NC1=O", "Not satisfied"],
  ["CCCC[C@H](NC(=O)[C@@H](NC(=O)[C@@H](N)Cc1ccc(O)cc1)C(C)C)C(=O)N[C@H]1CSSC[C@@H](C(=O)N[C@@H](CCCNC(=N)N)C(=O)N[C@@H](Cc2ccccc2)C(=O)NCC(N)=O)NC(=O)[C@H](Cc2c[nH]c3ccccc23)NC(=O)[C@H](CCCNC(=N)N)NC(=O)[C@H](Cc2ccccc2)NC(=O)[C@H](Cc2cnc[nH]2)NC1=O", "Satisfied"],
  ["CC(C)[C@H](NC(=O)[C@@H](N)Cc1ccc(O)cc1)C(=O)N[C@H]1CSSC[C@@H](C(=O)N[C@@H](CCCN=C(N)N)C(=O)N[C@@H](Cc2ccccc2)C(=O)NCC(N)=O)NC(=O)[C@H](Cc2c[nH]c3ccccc23)NC(=O)[C@H](CCCN=C(N)N)NC(=O)[C@H](Cc2ccccc2)NC(=O)[C@H](Cc2c[nH]cn2)NC(=O)CNC1=O", "Not satisfied"]
]}

Prompt: Find out if reported EC50 for CC(C)[C@H](NC(=O)[C@@H](N)Cc1ccc(O)cc1)C(=O)NC1CSSCC(C(=O)N[C@@H](CCCN=C(N)N)C(=O)N[C@@H](Cc2ccccc2)C(=O)NCC(N)=O)NC(=O)[C@H](Cc2c[nH]c3ccccc23)NC(=O)[C@H](CCCN=C(N)N)NC(=O)[C@@H](Cc2ccccc2)NC(=O)[C@H](Cc2c[nH]cn2)NC(=O)CNC1=O (stereo in doubt) is less than 70 nM
Response: Not satisfied

Prompt: # check: EC50 < 70 nM for CC(C)[C@H](NC(=O)[C@@H](N)Cc1ccc(O)cc1)C(=O)N[C@H]1CSSC(C)(C)[C@@H](C(=O)N[C@@H](CCCNC(=N)N)C(=O)N[C@@H](Cc2ccccc2)C(=O)NCC(N)=O)NC(=O)[C@H](Cc2c[nH]c3ccccc23)NC(=O)[C@H](CCCNC(=N)N)NC(=O)[C@H](Cc2ccccc2)NC(=O)[C@H](Cc2cnc[nH]2)NC(=O)CNC1=O (H-YVCGHFRW[Pen]RFG-NH2; disulfide 3-9)
Response: Not satisfied

Prompt: Does this compound meet the criterion EC50 < 70 nM? CCCC[C@H](NC(=O)[C@@H](NC(=O)[C@@H](N)Cc1ccc(O)cc1)C(C)C)C(=O)N[C@@H]1C(=O)N[C@@H](Cc2c[nH]cn2)C(=O)N[C@@H](Cc2ccccc2)C(=O)N[C@@H](CCCN=C(N)N)C(=O)N[C@@H](Cc2c[nH]c3ccccc23)C(=O)N[C@H](C(=O)N[C@@H](CCCN=C(N)N)C(=O)N[C@@H](Cc2ccccc2)C(=O)NCC(N)=O)CSSC1(C)C (H-YV[Nle][Pen]HFRWCRFG-NH2; disulfide 4-9)
Response: Not satisfied

Prompt: Criterion: EC50 strictly below 70 nM. Is it met by `CCCC[C@H](NC(=O)[C@@H](NC(=O)[C@@H](N)Cc1ccc(O)cc1)C(C)C)C(=O)N[C@@H]1CSSC[C@@H](C(=O)N[C@@H](CCCNC(=N)N)C(=O)N[C@@H](Cc2ccccc2)C(=O)NCC(N)=O)NC(=O)[C@H](Cc2c[nH]c3ccccc23)NC(=O)[C@H](CCCNC(=N)N)NC(=O)[C@H](Cc2ccccc2)NC(=O)[C@H](Cc2cnc[nH]2)NC1=O` ?
Response: Not satisfied

Prompt: Is EC50 strictly under 70 nM for the entry `CC(C)[C@H](NC(=O)[C@@H](N)Cc1ccc(O)cc1)C(=O)N[C@@H]1C(=O)NCC(=O)N[C@@H](Cc2cnc[nH]2)C(=O)N[C@@H](Cc2ccccc2)C(=O)N[C@@H](CCCNC(=N)N)C(=O)N[C@@H](Cc2c[nH]c3ccccc23)C(=O)N[C@H](C(=O)N[C@@H](CCCNC(=N)N)C(=O)N[C@@H](Cc2ccccc2)C(=O)NCC(N)=O)CSSC1(C)C` ?
Response: Not satisfied
